# ASSAY METHOD TEXT: in vivo
# CONDITION PARAMETERS: Wistar, rat, in vivo, iv, 0.5 mg/kg

{"columns": ["RECORD SMILES", "Vd [L/kg]"],
 "data": [
  ["COc1ncnc(Cn2cc(C(=O)NCCF)c3ncccc32)c1C", 1.05]
]}

----------
# ASSAY METHOD TEXT: in vivo
# CONDITION PARAMETERS: Wistar, rat, in vivo, iv, 2 mg/kg
QUANTITY MEASURED: AUC(0-t) (µM·h)

{"columns": ["MOLECULE", "QUANTITY MEASURED", "UNIT OF MEASUREMENT", "VAL"],
 "data": [
  ["COc1ncnc(Cn2cc(C(=O)NCCO)c3ncc(C)cc32)c1C [Compound 17]", "AUC(0-t)", "µM·h", 3.46]
]}

----------
This listing pairs compounds with measured Tmax.
# ASSAY METHOD TEXT: in vivo
# CONDITION PARAMETERS: Wistar, rat, in vivo, po, 30 mg/kg

{"columns": ["RECORD SMILES", "Tmax / h"],
 "data": [
  ["COc1ncnc(Cn2cc(C(=O)NCC3CC3)c3ncccc32)c1C", 3],
  ["COc1ncnc(Cn2cc(C(=O)NCCF)c3ncc(C)cc32)c1C", 4.5],
  ["COc1ncnc(Cn2cc(C(=O)NCCF)c3ncccc32)c1C", 2]
]}

----------
# ASSAY METHOD TEXT: in vivo
# CONDITION PARAMETERS: BALB/c, mouse, po, 100 mg/kg, Cmax, fPlasma

{"columns": ["MOLECULE", "Cmax, µM"],
 "data": [
  ["COc1ncnc(Cn2cc(C(=O)NCCF)c3ncccc32)c1C [Compound 3]", 4.85]
]}

----------
# ASSAY METHOD TEXT: in vivo
# CONDITION PARAMETERS: BALB/c, mouse, po, 30 mg/kg

{"columns": ["RECORD SMILES", "UNIT OF MEASUREMENT", "half-life"],
 "data": [
  ["COc1ncnc(Cn2cc(C(=O)NCCF)c3ncc(C)cc32)c1C", "h", 4.15]
]}

----------
# ASSAY METHOD TEXT: in vivo
# CONDITION PARAMETERS: BALB/c, mouse, po, 50 mg/kg

{"columns": ["RECORD SMILES", "half-life, h"],
 "data": [
  ["COc1ncnc(Cn2cc(C(=O)NCCO)c3ncc(C)cc32)c1C", 1.78]
]}

----------
# ASSAY METHOD TEXT: in vivo
# CONDITION PARAMETERS: BALB/c, mouse, po, 30 mg/kg
QUANTITY MEASURED: Cmax (µM)

{"columns": ["RECORD SMILES", "UNIT OF MEASUREMENT", "VAL"],
 "data": [
  ["COc1ncnc(Cn2cc(C(=O)NCCF)c3ncc(C)cc32)c1C", "µM", 13.4]
]}

----------
# ASSAY METHOD TEXT: in vivo
# CONDITION PARAMETERS: Wistar, rat, in vivo, po, 30 mg/kg
# Description: PK of azaindoles compounds was performed in mice (healthy and infected) and rats. Mice were pretreated with 100 mg/kg ABT two hours prior to the compound administration. […] One mg/mL stock solution of each compound was prepared in Dimethylsulfoxide (DMSO) and diluted two-fold with acetonitrile. […] Samples were acquired in positive ion mode and detected by multiple reaction monitoring (MRM). […]
QUANTITY MEASURED: AUC(0-inf) (µM·h)

{"columns": ["RECORD SMILES", "QUANTITY MEASURED", "UNIT OF MEASUREMENT", "VAL"],
 "data": [
  ["COc1ncnc(Cn2cc(C(=O)NCCF)c3ncc(C)cc32)c1C", "AUC(0-inf)", "µM·h", 29.3],
  ["COc1ncnc(Cn2cc(C(=O)NCC3CC3)c3ncccc32)c1C", "AUC(0-inf)", "µM·h", 22.9],
  ["COc1ncnc(Cn2cc(C(=O)NCCF)c3ncccc32)c1C", "AUC(0-inf)", "µM·h", 101]
]}
